System: HL-60(TB) leukemia
Experiment: NCI tumour cell line growth inhibition, 48 h
Reported Property: TGI

Lab note: need TGI with HL-60(TB) leukemia for entry "COc1ccc(/C=C/C(=O)c2cc(C(=O)O)c(OC)cc2OC)cc1OC" , please look it up. > 100 µM

Lab note: need TGI with HL-60(TB) leukemia for entry "COc1ccc2c(c1)CCc1cc(C(N)=O)c3nnnn3c1-2" , please look it up. > 100 µM

Lab note: need TGI with HL-60(TB) leukemia for entry "N=c1c2c(=S)n(-c3ccccc3)c(=S)n(-c3ccccc3)c2nc(SCCCN2CCCCC2)n1-c1ccccc1" , please look it up. 3.81 µM

Lab note: need TGI with HL-60(TB) leukemia for entry CC(=O)Oc1c(C)cc2c(c1C)C(C)CN2C(C)=O (configuration not stated) , please look it up. > 100 µM

Lab note: need TGI with HL-60(TB) leukemia for entry CC(=O)OCC1OC(n2c(C)c(C(C)=O)c(-c3ccc(Cl)cc3)c(C#N)c2=S)C(OC(C)=O)C(OC(C)=O)C1OC(C)=O (configuration not stated) , please look it up. > 100 µM

Lab note: need TGI with HL-60(TB) leukemia for entry "Cc1ccc(/C(O)=C/c2nc3ccccc3[nH]c2=O)cc1" , please look it up. > 100 µM

Lab note: need TGI with HL-60(TB) leukemia for entry "CCc1n[nH]c(=S)n1/N=C/c1ccc(-c2ccc([N+](=O)[O-])cc2)o1" , please look it up. > 100 µM

Lab note: need TGI with HL-60(TB) leukemia for entry "CCCC(=O)OCC(COC(=O)CCC)OC(=O)CCC" , please look it up. 90.7 µM

Lab note: need TGI with HL-60(TB) leukemia for entry "CCN(C(C)=N)c1ccccc1" , please look it up. > 100 µM

Lab note: need TGI with HL-60(TB) leukemia for entry CCOC(=O)C(C(C)=O)C1CC=CC1 (configuration not stated) , please look it up. > 100 µM

Lab note: need TGI with HL-60(TB) leukemia for entry CC(=O)NC(CCCN(Cc1ccccc1)C(=O)NCCCl)C(=O)NCc1ccccc1 (configuration not stated) , please look it up. > 100 µM

Lab note: need TGI with HL-60(TB) leukemia for entry OC1CC1Sc1ccccc1 (configuration not stated) , please look it up. 39.6 µM

Lab note: need TGI with HL-60(TB) leukemia for entry "Oc1cc2ccccc2cc1-c1n[nH]c(=S)n1CCc1ccccc1" , please look it up. > 100 µM

Lab note: need TGI with HL-60(TB) leukemia for entry CC(CCc1ccccc1)NCC(O)n1c(/N=N/N(C)C)nc2c1c(=O)n(C)c(=O)n2C (configuration not stated) , please look it up. > 100 µM

Lab note: need TGI with HL-60(TB) leukemia for entry "CN(C)C(=S)NC(=S)Nc1ccc2ccccc2c1" , please look it up. 51.7 µM

Lab note: need TGI with HL-60(TB) leukemia for entry "CC(C)OC(=O)c1cc(NC(=O)C(C)(C)C)c(F)cc1Cl" , please look it up. > 100 µM

Lab note: need TGI with HL-60(TB) leukemia for entry C=C[C@]1(C)CC(O)C2C(=C)C(=O)OC2[C@H]1C(=C)C=O (some centres not stated) , please look it up. 2.41 µM
